Tested on: cytochrome c
Type: cell-based, mouse
Conditions: 20 μM; composite Z-score vs DMSO
The label 1 is reserved for cyt c strictly under -0.4; -1 covers values equal to or above it.

# MOLECULE, TARGET OR TEST SYSTEM, CATEGORY
rows = [
    ("Cc1cc(C2CCCCC2)n(O)c(=O)c1 [ciclopirox olamine]", "cytochrome c", -1),
    ("CC(=O)CCCCn1c(=O)c2c(ncn2C)n(C)c1=O [pentoxifylline]", "cytochrome c", 1),
    ("CC[C@@H](C(=O)[C@@H](C)[C@@H](O)[C@H](C)[C@@H]1O[C@@H]([C@@H](CC)C(=O)O)CC[C@@H]1C)[C@H]1O[C@]2(C=C[C@@H](O)[C@]3(CC[C@@](C)([C@H]4CC[C@](O)(CC)[C@H](C)O4)O3)O2)[C@H](C)C[C@@H]1C [salinomycin, reference compound]", "cytochrome c", 1),
]

Q: Please determine if O=C(Nc1ccc([N+](=O)[O-])cc1Cl)c1cc(Cl)ccc1O [niclosamide] is below -0.4 in terms of cyt c.
Ans: 1

Q: Please determine if COC(=O)/C(=C1/OC(=O)C(c2ccccc2)=C1O)c1ccccc1 [vulpinic acid] is below -0.4 in terms of cyt c.
Ans: -1

Q: Please determine if CCCN(CCC)C(=O)C(CCC(=O)O)NC(=O)c1ccccc1 (centres unmarked) [proglumide] is below -0.4 in terms of cyt c.
Ans: -1

Q: Please determine if NC(=O)c1cc([N+](=O)[O-])cc([N+](=O)[O-])c1 [nitromide] is below -0.4 in terms of cyt c.
Ans: -1

Q: Please determine if CC(C)(C)NCC(O)c1ccccc1Cl (centres unmarked) [tulobuterol] is below -0.4 in terms of cyt c.
Ans: -1
